target: Protein farnesyltransferase/geranylgeranyltransferase type-1 subunit alpha (Rattus norvegicus, UniProt Q04631); assay: PfPFT and Rat PFT IC50 Determination
recorded metric: pIC50
Answer as the number alone; pIC50 is minus log10 of concentration in mol/L.

Record [C-]#[N+]c1ccc2c(c1)CC(N(CC(=O)NC(C)(C)C)S(=O)(=O)c1ccncc1)CN2Cc1cncn1C (stereo not drawn) . Reported pIC50: 6.80

Record [C-]#[N+]c1ccc2c(c1)CC(N(CC(=O)NC(C)(C)C)S(=O)(=O)c1ccccn1)CN2Cc1cncn1C (stereo not drawn) . Reported pIC50: 8.74

Record [C-]#[N+]c1ccc2c(c1)CC(N(CC(=O)NC(C)(C)C)S(=O)(=O)c1cccnc1)CN2Cc1cncn1C (stereo not drawn) . Reported pIC50: 8.22
